Molecular target: T1, MexR (Pseudomonas aeruginosa, UniProt P52003 5-139)
T1 sequence: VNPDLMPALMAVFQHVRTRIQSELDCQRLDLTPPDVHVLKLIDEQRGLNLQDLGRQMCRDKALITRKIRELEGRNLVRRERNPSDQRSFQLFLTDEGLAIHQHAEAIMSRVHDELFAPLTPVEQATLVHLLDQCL
Test: ITC; one MexR dimer per duplex; 20 C; ITC: 20 mM sodium phosphate pH 7.1, 150 mM NaCl, 5 mM beta-mercaptoethanol, 20 C; complex sample buffer: 20 mM sodium phosphate pH 7.1, 150 mM NaCl, 10 mM DTT
Conditions: protein: recombinant; tags: 6xHis-thioredoxin tag removed with TEV; chain copies: 2; blunt
PROPERTY LABEL: Kd
Just so you know, I need the unit written after the number.

I have this binder here, PII DNA (dsDNA) DNA 1: CTTATTTTAGTTGACCTTATCAACCTTGTTTCAG DNA 2: CTGAAACAAGGTTGATAAGGTCAACTAAAATAAG , and I need its recorded Kd.
240 nM
